- Tgt: Human P2Y1-R (Homo sapiens)
- Construct: expressed in transfected cells; host or cells: HEK293T/17
- Sequence (P47900 whole entry): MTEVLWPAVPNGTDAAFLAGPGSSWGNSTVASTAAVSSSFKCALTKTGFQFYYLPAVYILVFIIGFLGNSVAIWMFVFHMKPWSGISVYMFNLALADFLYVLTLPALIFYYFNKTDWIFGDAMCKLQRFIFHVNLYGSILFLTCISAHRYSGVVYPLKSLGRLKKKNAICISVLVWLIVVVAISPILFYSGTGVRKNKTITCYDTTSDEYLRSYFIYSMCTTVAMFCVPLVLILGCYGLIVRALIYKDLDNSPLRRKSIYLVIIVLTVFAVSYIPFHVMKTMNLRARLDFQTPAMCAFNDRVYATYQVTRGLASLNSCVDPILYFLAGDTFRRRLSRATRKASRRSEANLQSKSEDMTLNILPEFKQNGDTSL
- Assay: Gαq protein activation BRET2 assay (Gαq-RLuc8/GFP2-Gγ2/Gβ1) in HEK293T cells expressing P2Y1-R
- Format: cell-based
- Condition Info: G protein signaling, Fig. 4a, 1 min
# pEC50 values compiled below
API: returns pEC50 as number; meaning -log10 of concentration in mol/L.

### Prompt # return recorded pEC50 for input CNc1nc(Cl)nc2c1ncn2[C@H]1CC(OP(=O)(O)O)[C@]2(COP(=O)(O)O)C[C@H]12 (stereo in doubt)
### Response 4.58

### Prompt Tell us which pEC50 value is on record for CNc1ncnc2c1ncn2[C@H]1C[C@H](OP(=O)(O)O)[C@@H](COP(=O)(O)O)O1
### Response 4.82

### Prompt Fill in pEC50 for record CNc1nc(I)nc2c1ncn2[C@H]1C[C@H](OP(=O)(O)O)[C@]2(COP(=O)(O)O)C[C@H]12
### Response 6.11
